assay: Example 7 pharmacokinetics assay for PKPD study (plasma, tumor, liver); assay type: in vivo, BALB/c nude mice; conditions: mouse, plasma, po; 10 mg/kg, p.o., single dose; 24 h; read-out: Concentration in Plasma (mean ± SEM)
Overview of reported concentration at 24 h across a group of molecules:
Use ng/mL as the unit, but write only the number.

{"molecule": "CCN(C)S(=O)(=O)Nc1ccc(F)c(Oc2ccc3ncc(OCC4CCN(C5CCC(c6cc7c(cc6F)c(N6CCC(=O)NC6=O)nn7C)CC5)CC4)nc3c2)c1C#N (single isomer, unassigned) [Compound 118]", "assay_value": 595}
{"molecule": "CCN(C)S(=O)(=O)Nc1ccc(F)c(Oc2ccc3ncn(C4CC5(CCN(C6CC7(C6)CN(c6cc8c(cc6F)c(N6CCC(=O)NC6=O)nn8C)C7)CC5)C4)c(=O)c3c2)c1C#N (stereo not shown) [Compound 141]", "assay_value": 219}
{"molecule": "CCN(C)S(=O)(=O)Nc1ccc(F)c(Oc2ccc3ncc(C4CC5(CCN(C6CCC(c7cc8c(cc7F)c(N7CCC(=O)NC7=O)nn8C)CC6)CC5)C4)nc3c2)c1C#N (single isomer, unassigned) [Compound 180]", "assay_value": 1.54}

Item under review: CCN(C)S(=O)(=O)Nc1ccc(F)c(Oc2ccc3ncn(C4CC5(CCN(C6CCN(c7cc8c(cc7F)c(N7CCC(=O)NC7=O)nn8C)CC6)CC5)C4)c(=O)c3c2)c1C#N [Compound 156] . Reported concentration at 24 h? 1.78

====

test: Example 9 pharmacokinetics assay for the PK and PD study Part I, II and III (plasma, tumor, liver); assay type: in vivo, BALB/c nude mice; details: mouse, plasma, po; 10 mg/kg, p.o., single dose; 6 h; ± SEM; read-out: Mean Concentration in Plasma
Please assign not fulfilled whenever concentration at 6 h is at or above 6000 ng/mL, and fulfilled whenever it is below.

Reference set (3 entries):
{"compound": "CCN(C)S(=O)(=O)Nc1ccc(F)c(Oc2ccc3ncc(OC4CC5(CCN(C6CCC(c7cc8c(cc7F)c(N7CCC(=O)NC7=O)nn8C)CC6)CC5)C4)nc3c2)c1C#N (single isomer, unassigned)", "label_value": "fulfilled"}
{"compound": "CCN(C)S(=O)(=O)Nc1ccc(F)c(Oc2ccc3ncn(C4CC5(CCN(C6CC7(CCN(c8cc9c(cc8F)c(N8CCC(=O)NC8=O)nn9C)CC7)C6)CC5)C4)c(=O)c3c2)c1C#N (stereo not drawn)", "label_value": "fulfilled"}
{"compound": "CCN(C)S(=O)(=O)Nc1ccc(F)c(Oc2ccc3ncn(C4CC5(C4)CN(C4CCC(c6cc7c(cc6F)c(N6CCC(=O)NC6=O)nn7C)CC4)C5)c(=O)c3c2)c1C#N (single isomer, unassigned)", "label_value": "fulfilled"}

Regarding Cn1nc(N2CCC(=O)NC2=O)c2cc(F)c(N3CC4(CC(N5CCC6(CC5)C[C@@H](n5cnc7ccc(Oc8c(F)ccc(NS(=O)(=O)N9CC[C@@H](F)C9)c8C#N)cc7c5=O)CO6)C4)C3)cc21 , kindly confirm whether its concentration at 6 h is beneath 6000 ng/mL. fulfilled

Here is the next compound: CO[C@H]1CCN(S(=O)(=O)Nc2ccc(F)c(Oc3ccc4ncn([C@H]5COC6(CCN(C7CC8(C7)CN(c7cc9c(cc7F)c(N7CCC(=O)NC7=O)nn9C)C8)CC6)C5)c(=O)c4c3)c2C#N)C1 not fulfilled

Input CO[C@@H]1CCN(S(=O)(=O)Nc2ccc(F)c(Oc3ccc4ncn([C@H]5COC6(CCN(C7CC8(C7)CN(c7cc9c(cc7F)c(N7CCC(=O)NC7=O)nn9C)C8)CC6)C5)c(=O)c4c3)c2C#N)C1 not fulfilled

====

Each entry below carries its reported concentration at 12 h.
assay: Example 9 pharmacokinetics assay for the PK and PD study Part I, II and III (plasma, tumor, liver); format: in vivo, BALB/c nude mice; details: mouse, liver, po; 10 mg/kg, p.o., single dose; 12 h; ± SEM; read-out: Mean Concentration in Liver
Respond with a number, then the unit of measure.

Illustrative cases are given below, each with its answer.
{"molecule": "CCN(C)S(=O)(=O)Nc1ccc(F)c(Oc2ccc3ncn(C4CC5(C4)CN(C4CCC(c6cc7c(cc6F)c(N6CCC(=O)NC6=O)nn7C)CC4)C5)c(=O)c3c2)c1C#N (single isomer, unassigned)", "quantity": "concentration at 12 h", "assay_value": "291 ng/g"}
{"molecule": "CO[C@H]1CCN(S(=O)(=O)Nc2ccc(F)c(Oc3ccc4ncn([C@H]5COC6(CCN(C7CC8(C7)CN(c7cc9c(cc7F)c(N7CCC(=O)NC7=O)nn9C)C8)CC6)C5)c(=O)c4c3)c2C#N)C1", "quantity": "concentration at 12 h", "assay_value": "1320 ng/g"}
{"molecule": "CO[C@@H]1CCN(S(=O)(=O)Nc2ccc(F)c(Oc3ccc4ncn([C@H]5COC6(CCN(C7CC8(C7)CN(c7cc9c(cc7F)c(N7CCC(=O)NC7=O)nn9C)C8)CC6)C5)c(=O)c4c3)c2C#N)C1", "quantity": "concentration at 12 h", "assay_value": "873 ng/g"}
{"molecule": "CCN(C)S(=O)(=O)Nc1ccc(F)c(Oc2ccc3ncc(OC4CC5(CCN(C6CCC(c7cc8c(cc7F)c(N7CCC(=O)NC7=O)nn8C)CC6)CC5)C4)nc3c2)c1C#N (single isomer, unassigned)", "quantity": "concentration at 12 h", "assay_value": "972 ng/g"}
{"molecule": "Cn1nc(N2CCC(=O)NC2=O)c2cc(F)c(N3CC4(CC(N5CCC6(CC5)C[C@@H](n5cnc7ccc(Oc8c(F)ccc(NS(=O)(=O)N9CC[C@@H](F)C9)c8C#N)cc7c5=O)CO6)C4)C3)cc21", "quantity": "concentration at 12 h", "assay_value": "503 ng/g"}

Let's switch to this molecule now.
What value of concentration at 12 h has been recorded for this entry: CCN(C)S(=O)(=O)Nc1ccc(F)c(Oc2ccc3ncn(C4CC5(CCN(C6CC7(CCN(c8cc9c(cc8F)c(N8CCC(=O)NC8=O)nn9C)CC7)C6)CC5)C4)c(=O)c3c2)c1C#N (stereo not drawn) 1020 ng/g

====

assay: Pharmacokinetics in female BALB/c nude mice bearing A375 xenografts, 1 day dosing (PK and PD study): plasma, tumor and brain concentrations, AUC; type: in vivo; settings: mouse, plasma, po, 1.5 mg/kg, 1.5 mg/kg p.o. BID × 1 day; post 2nd dose; 1 h; read-out: Mean Concentration in Plasma ± SEM
quantity: concentration at 1 h (ng/mL)
# unit: ng/mL | format: bare number

Entry under review: CCN(C)S(=O)(=O)Nc1ccc(F)c(Oc2ccc3ncn([C@H]4COC5(CCN(C6CC7(C6)CN(c6cc8c(cc6F)c(N6CCC(=O)NC6=O)nn8C)C7)CC5)C4)c(=O)c3c2)c1C#N . Reported concentration at 1 h? 1820

====

test: Pharmacokinetics in female BALB/c nude mice bearing A375 xenografts, 1 day dosing (PK and PD study): plasma, tumor and brain concentrations, AUC; assay type: in vivo; conditions: mouse, brain, po, 10 mg/kg, 10 mg/kg p.o. BID × 1 day; post 2nd dose; 10 h; read-out: Mean Concentration in Brain ± SEM
quantity: concentration at 10 h

Look up concentration at 10 h: CCN(C)S(=O)(=O)Nc1ccc(F)c(Oc2ccc3ncn([C@H]4COC5(CCN(C6CC7(C6)CN(c6cc8c(cc6F)c(N6CCC(=O)NC6=O)nn8C)C7)CC5)C4)c(=O)c3c2)c1C#N 80.4 ng/g

====

target: BRAF V600E (Homo sapiens, UniProt P15056+Q96SW2, V600E); construct: knock-in of the HiBiT tag to the endogenous BRAF V600E locus; host or cells: A375.10 (A375 clonal line, CRISPR HiBiT knock-in at the endogenous BRAF V600E locus); assay: BRAF V600E HiBiT Degradation Assay; assay type: cell-based; details: A375.10 cells, HiBiT, BRAF V600E, 24 hours; read-out: HiBiT-Degradation A375.10 BRAF 24 hours Emax
Sequence (P15056 whole entry V600E): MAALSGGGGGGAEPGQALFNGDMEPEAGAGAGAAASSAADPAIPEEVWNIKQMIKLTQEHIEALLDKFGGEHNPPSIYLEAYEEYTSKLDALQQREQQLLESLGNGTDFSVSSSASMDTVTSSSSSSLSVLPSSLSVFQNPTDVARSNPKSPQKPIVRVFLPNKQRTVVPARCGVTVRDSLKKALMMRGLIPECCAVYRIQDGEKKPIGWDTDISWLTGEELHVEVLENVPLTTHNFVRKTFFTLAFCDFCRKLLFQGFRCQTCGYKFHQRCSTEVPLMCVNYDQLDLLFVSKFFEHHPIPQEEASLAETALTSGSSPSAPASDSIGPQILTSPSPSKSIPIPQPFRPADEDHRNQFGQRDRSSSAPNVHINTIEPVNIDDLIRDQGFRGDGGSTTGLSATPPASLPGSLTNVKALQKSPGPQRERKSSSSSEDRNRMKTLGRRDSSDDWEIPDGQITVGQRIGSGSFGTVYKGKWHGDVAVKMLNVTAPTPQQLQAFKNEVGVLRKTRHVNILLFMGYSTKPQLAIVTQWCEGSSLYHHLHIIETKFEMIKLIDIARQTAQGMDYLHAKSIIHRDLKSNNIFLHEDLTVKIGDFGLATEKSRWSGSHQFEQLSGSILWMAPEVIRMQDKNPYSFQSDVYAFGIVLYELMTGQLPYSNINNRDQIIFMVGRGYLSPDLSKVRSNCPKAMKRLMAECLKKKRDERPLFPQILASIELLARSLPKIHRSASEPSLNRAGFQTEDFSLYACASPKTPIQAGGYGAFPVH
Sequence (Q96SW2 whole entry): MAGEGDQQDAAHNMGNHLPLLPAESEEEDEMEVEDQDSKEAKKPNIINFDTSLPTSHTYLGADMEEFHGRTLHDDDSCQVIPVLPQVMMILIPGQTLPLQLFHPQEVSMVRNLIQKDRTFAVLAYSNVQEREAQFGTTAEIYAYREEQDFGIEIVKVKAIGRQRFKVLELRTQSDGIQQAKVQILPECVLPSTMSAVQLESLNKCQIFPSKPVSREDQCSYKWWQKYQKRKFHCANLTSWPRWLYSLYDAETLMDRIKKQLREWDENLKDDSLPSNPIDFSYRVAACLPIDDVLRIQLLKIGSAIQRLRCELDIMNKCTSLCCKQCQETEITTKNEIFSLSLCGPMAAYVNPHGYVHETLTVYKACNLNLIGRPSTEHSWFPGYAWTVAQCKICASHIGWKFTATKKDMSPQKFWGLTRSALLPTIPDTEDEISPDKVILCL
Sequence (Q16531 whole entry partner): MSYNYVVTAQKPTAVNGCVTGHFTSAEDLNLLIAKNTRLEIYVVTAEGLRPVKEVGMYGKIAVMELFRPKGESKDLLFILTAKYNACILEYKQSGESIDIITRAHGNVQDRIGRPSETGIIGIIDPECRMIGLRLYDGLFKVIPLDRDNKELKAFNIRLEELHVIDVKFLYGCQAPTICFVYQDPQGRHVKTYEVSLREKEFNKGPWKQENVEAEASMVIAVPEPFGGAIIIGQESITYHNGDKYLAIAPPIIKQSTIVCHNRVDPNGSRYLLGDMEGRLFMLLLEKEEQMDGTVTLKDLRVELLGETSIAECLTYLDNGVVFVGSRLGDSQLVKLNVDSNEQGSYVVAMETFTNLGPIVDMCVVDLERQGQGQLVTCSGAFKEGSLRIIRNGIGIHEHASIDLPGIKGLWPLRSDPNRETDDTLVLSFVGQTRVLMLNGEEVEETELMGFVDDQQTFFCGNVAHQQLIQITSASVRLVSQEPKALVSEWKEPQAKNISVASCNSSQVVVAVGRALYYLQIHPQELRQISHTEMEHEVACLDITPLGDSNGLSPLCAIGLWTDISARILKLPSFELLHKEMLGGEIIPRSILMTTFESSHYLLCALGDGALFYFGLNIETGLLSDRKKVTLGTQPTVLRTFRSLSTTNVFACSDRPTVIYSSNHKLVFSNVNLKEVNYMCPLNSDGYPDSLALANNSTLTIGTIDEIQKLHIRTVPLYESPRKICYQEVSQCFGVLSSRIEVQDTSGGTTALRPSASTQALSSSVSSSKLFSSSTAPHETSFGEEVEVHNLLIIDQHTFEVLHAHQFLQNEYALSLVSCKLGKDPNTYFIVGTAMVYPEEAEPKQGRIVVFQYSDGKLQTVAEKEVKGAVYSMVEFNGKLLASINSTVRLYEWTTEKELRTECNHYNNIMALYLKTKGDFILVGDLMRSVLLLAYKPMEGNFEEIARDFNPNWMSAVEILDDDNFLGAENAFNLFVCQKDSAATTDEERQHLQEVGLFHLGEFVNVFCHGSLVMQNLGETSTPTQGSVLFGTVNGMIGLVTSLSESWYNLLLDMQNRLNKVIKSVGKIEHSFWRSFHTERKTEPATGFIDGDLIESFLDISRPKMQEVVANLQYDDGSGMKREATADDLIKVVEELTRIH
quantity: Emax

Reported Emax, compound CCN(C)S(=O)(=O)Nc1ccc(F)c(Oc2ccc3ncn([C@H]4CO[C@]5(CCN(C6CCC(c7cc8c(cc7F)c(N7CCC(=O)NC7=O)nn8C)CC6)C5)C4)c(=O)c3c2)c1C#N (single isomer, unassigned) : ____ < 50%

====

experiment: Pharmacokinetics in female BALB/c nude mice bearing A375 xenografts, 1 day dosing (PK and PD study): plasma, tumor and brain concentrations, AUC; type: in vivo; details: mouse, brain, po, 1.5 mg/kg, Compound 141; 1.5 mg/kg p.o. BID × 1 day; post 2nd dose; 1 h; read-out: Mean Concentration in Brain ± SEM
quantity: concentration at 1 h (ng/g)
Unit ng/g implied. Number only.

Item under review: CCN(C)S(=O)(=O)Nc1ccc(F)c(Oc2ccc3ncn(C4CC5(CCN(C6CC7(C6)CN(c6cc8c(cc6F)c(N6CCC(=O)NC6=O)nn8C)C7)CC5)C4)c(=O)c3c2)c1C#N (stereo not shown) . Reported concentration at 1 h? 44.1

Hello, the source for this data is patent US20260297060A1, in case you need it.
